ASSAY_SYSTEM: UniProtKB P30542
METHOD_SUMMARY: Displacement of [3H]-DPCPX from human adenosine A1 receptor expressed in CHO cell membranes after 120 mins by scintillation counting analysis
Set-up: concentration or dose not given beside the values
Give inhibition for every item shown.

## Task GET /values?readout=inhibition&item= `COc1cccc(NC(=Nc2nc3nn(C)cc3c3nc(-c4ccco4)nn23)Nc2cccc(OC)c2)c1`
## Result 1%

## Task Likewise for `Cn1cc2c(nc(N=C(Nc3ccc(Cl)cc3)Nc3ccc(Cl)cc3)n3nc(-c4ccco4)nc23)n1` ?
## Result 8%

## Task Likewise for `Cn1cc2c(nc(N=C(Nc3ccc(Br)cc3)Nc3ccc(Br)cc3)n3nc(-c4ccco4)nc23)n1` ?
## Result 1%

## Task Likewise for `Cn1cc2c(nc(N=C(Nc3cccc(C(F)(F)F)c3)Nc3cccc(C(F)(F)F)c3)n3nc(-c4ccco4)nc23)n1` ?
## Result 3%

## Task Likewise for `Cn1cc2c(nc(N=C(Nc3cccc(Cl)c3)Nc3cccc(Cl)c3)n3nc(-c4ccco4)nc23)n1` ?
## Result 17%

###

ASSAY_SYSTEM: Adenosine receptor A3 (Homo sapiens) (UniProt P0DMS8)
Sequence (whole entry): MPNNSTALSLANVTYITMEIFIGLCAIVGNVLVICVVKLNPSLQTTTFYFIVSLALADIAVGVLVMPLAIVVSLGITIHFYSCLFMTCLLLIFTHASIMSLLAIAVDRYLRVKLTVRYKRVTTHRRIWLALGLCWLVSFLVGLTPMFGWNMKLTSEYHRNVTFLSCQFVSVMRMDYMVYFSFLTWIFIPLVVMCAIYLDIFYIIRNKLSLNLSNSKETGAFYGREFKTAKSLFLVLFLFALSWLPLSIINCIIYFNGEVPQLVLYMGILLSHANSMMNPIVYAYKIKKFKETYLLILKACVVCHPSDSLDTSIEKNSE
METHOD_SUMMARY: Antagonist activity at human adenosine A3 receptor expressed in CHO cells assessed as inhibition of Cl-IB-MECA-mediated suppression of forskolin-induced cyclic-AMP accumulation by scintillation counting analysis in presence of [3H]-cyclic AMP
Assay type: cell-based
Class boundaries, taken from values of Kb, are as follows: band A (below 40 nM), band B (40 nM to below 70 nM), band C (70 nM or more)

## Task Hi, small favor: classify `CC(C)NC(=Nc1nc2nn(C)cc2c2nc(-c3ccco3)nn12)NC(C)C` by its Kb when you get a moment.
## Result band A

## Task Likewise for `Cn1cc2c(nc(N=C(Nc3ccc(C#N)cc3)Nc3ccc(C#N)cc3)n3nc(-c4ccco4)nc23)n1` ?
## Result band A

## Task Likewise for `Cn1cc2c(nc(N=C(Nc3ccc(Br)cc3)Nc3ccc(Br)cc3)n3nc(-c4ccco4)nc23)n1` ?
## Result band C

## Task Likewise for `Cn1cc2c(nc(N=C(Nc3ccc(Cl)cc3)Nc3ccc(Cl)cc3)n3nc(-c4ccco4)nc23)n1` ?
## Result band B

## Task Likewise for `CCN/C(=N\c1nc2nn(C)cc2c2nc(-c3ccco3)nn12)NCCCN(C)C` ?
## Result band C

## Task Likewise for `Cc1ccc(NC(=Nc2nc3nn(C)cc3c3nc(-c4ccco4)nn23)Nc2ccc(C)cc2)cc1` ?
## Result band B

## Task Likewise for `COc1ccc(NC(=Nc2nc3nn(C)cc3c3nc(-c4ccco4)nn23)Nc2ccc(OC)cc2)cc1` ?
## Result band B

## Task Likewise for `Cn1cc2c(nc(N=C(NC3CCCCC3)NC3CCCCC3)n3nc(-c4ccco4)nc23)n1` ?
## Result band A

## Task Likewise for `Cn1cc2c(nc(N=C(Nc3ccc([N+](=O)[O-])cc3)Nc3ccc([N+](=O)[O-])cc3)n3nc(-c4ccco4)nc23)n1` ?
## Result band A

## Task Likewise for `Cn1cc2c(nc(N=C(Nc3cccc(Cl)c3)Nc3cccc(Cl)c3)n3nc(-c4ccco4)nc23)n1` ?
## Result band C

## Task Likewise for `Cn1cc2c(nc(N=C(Nc3cccc(C(F)(F)F)c3)Nc3cccc(C(F)(F)F)c3)n3nc(-c4ccco4)nc23)n1` ?
## Result band C

## Task Likewise for `Cn1cc2c(nc(N=C(Nc3ccc(F)cc3)Nc3ccc(F)cc3)n3nc(-c4ccco4)nc23)n1` ?
## Result band C

## Task Likewise for `Cn1cc2c(nc(N=C(Nc3ccccc3)Nc3ccccc3)n3nc(-c4ccco4)nc23)n1` ?
## Result band B

## Task Likewise for `COc1cccc(NC(=Nc2nc3nn(C)cc3c3nc(-c4ccco4)nn23)Nc2cccc(OC)c2)c1` ?
## Result band C

###

ASSAY_SYSTEM: Adenosine receptor A1 (Homo sapiens) (UniProt P30542)
Sequence (P30542 whole entry): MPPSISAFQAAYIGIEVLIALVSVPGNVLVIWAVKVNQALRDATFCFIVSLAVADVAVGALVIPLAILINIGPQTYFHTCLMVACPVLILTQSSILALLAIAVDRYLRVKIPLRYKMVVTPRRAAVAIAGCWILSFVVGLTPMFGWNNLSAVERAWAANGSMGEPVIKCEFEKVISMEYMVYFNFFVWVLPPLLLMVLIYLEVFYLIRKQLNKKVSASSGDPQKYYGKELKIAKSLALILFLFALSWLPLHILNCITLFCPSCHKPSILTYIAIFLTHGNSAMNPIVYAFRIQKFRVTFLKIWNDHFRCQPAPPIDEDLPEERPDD
METHOD_SUMMARY: Displacement of [3H]-DPCPX from human adenosine A1 receptor expressed in CHO cell membranes after 120 mins by scintillation counting analysis
Parameters: concentration or dose not given beside the values
PARAMETER: inhibition
The answer should read as a number with its unit following.

## Task Fill in the recorded inhibition for this molecule, with Adenosine receptor A1 (Homo sapiens) (UniProt P30542) as test system: `CC(C)NC(=Nc1nc2nn(C)cc2c2nc(-c3ccco3)nn12)NC(C)C`
## Result 4%

## Task Likewise for `Cn1cc2c(nc(N=C(NC3CCCCC3)NC3CCCCC3)n3nc(-c4ccco4)nc23)n1` ?
## Result 25%

## Task Likewise for `Cn1cc2c(nc(N=C(Nc3ccccc3)Nc3ccccc3)n3nc(-c4ccco4)nc23)n1` ?
## Result 10%

## Task Likewise for `Cn1cc2c(nc(N=C(Nc3ccc([N+](=O)[O-])cc3)Nc3ccc([N+](=O)[O-])cc3)n3nc(-c4ccco4)nc23)n1` ?
## Result 1%

## Task Likewise for `Cn1cc2c(nc(N=C(Nc3ccc(F)cc3)Nc3ccc(F)cc3)n3nc(-c4ccco4)nc23)n1` ?
## Result 1%

## Task Likewise for `COc1ccc(NC(=Nc2nc3nn(C)cc3c3nc(-c4ccco4)nn23)Nc2ccc(OC)cc2)cc1` ?
## Result 7%

## Task Likewise for `Cc1ccc(NC(=Nc2nc3nn(C)cc3c3nc(-c4ccco4)nn23)Nc2ccc(C)cc2)cc1` ?
## Result 6%

## Task Likewise for `CCN/C(=N\c1nc2nn(C)cc2c2nc(-c3ccco3)nn12)NCCCN(C)C` ?
## Result 22%

## Task Likewise for `Cn1cc2c(nc(N=C(Nc3ccc(C#N)cc3)Nc3ccc(C#N)cc3)n3nc(-c4ccco4)nc23)n1` ?
## Result 1%

###

The compounds below have reported Ki for Adenosine receptor A3 (Homo sapiens, UniProt P0DMS8).
Reply numerically in nM, unit not repeated.

## Task GET /values?readout=Ki&item= `Cn1cc2c(nc(N=C(Nc3ccc(F)cc3)Nc3ccc(F)cc3)n3nc(-c4ccco4)nc23)n1`
## Result 122

## Task Likewise for `Cn1cc2c(nc(N=C(Nc3ccc(Br)cc3)Nc3ccc(Br)cc3)n3nc(-c4ccco4)nc23)n1` ?
## Result 345

## Task Likewise for `Cn1cc2c(nc(N=C(Nc3ccc(C#N)cc3)Nc3ccc(C#N)cc3)n3nc(-c4ccco4)nc23)n1` ?
## Result 30

## Task Likewise for `COc1ccc(NC(=Nc2nc3nn(C)cc3c3nc(-c4ccco4)nn23)Nc2ccc(OC)cc2)cc1` ?
## Result 42

## Task Likewise for `Cn1cc2c(nc(N=C(Nc3cccc(C(F)(F)F)c3)Nc3cccc(C(F)(F)F)c3)n3nc(-c4ccco4)nc23)n1` ?
## Result 520

## Task Likewise for `COc1cccc(NC(=Nc2nc3nn(C)cc3c3nc(-c4ccco4)nn23)Nc2cccc(OC)c2)c1` ?
## Result 155

###

Give inhibition for every item shown.
ASSAY_SYSTEM: Adenosine receptor A2b (Homo sapiens) (UniProt P29275)
Sequence (P29275 whole entry): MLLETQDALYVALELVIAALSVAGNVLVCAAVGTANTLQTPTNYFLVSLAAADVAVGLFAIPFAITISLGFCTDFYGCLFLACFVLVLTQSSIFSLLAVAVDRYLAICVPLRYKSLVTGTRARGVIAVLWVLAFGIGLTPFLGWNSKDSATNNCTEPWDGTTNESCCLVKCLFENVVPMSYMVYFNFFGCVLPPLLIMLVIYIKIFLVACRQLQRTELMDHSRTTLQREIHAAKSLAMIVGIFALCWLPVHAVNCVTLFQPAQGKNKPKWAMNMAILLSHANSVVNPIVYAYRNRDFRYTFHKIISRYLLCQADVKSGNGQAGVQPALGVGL
METHOD_SUMMARY: Antagonist activity at human adenosine A2B receptor expressed in CHO cells assessed as inhibition of NECA-stimulated cyclic AMP production by scintillation counting analysis in presence of [3H]-cyclic AMP
Format: cell-based
Parameters: concentration or dose not given beside the values
SETTINGS: concentration not given here
The answer should read as a number with its unit following.

## Task GET /values?readout=inhibition&item= `Cn1cc2c(nc(N=C(Nc3ccc(F)cc3)Nc3ccc(F)cc3)n3nc(-c4ccco4)nc23)n1`
## Result 1%

## Task Likewise for `Cn1cc2c(nc(N=C(Nc3ccc([N+](=O)[O-])cc3)Nc3ccc([N+](=O)[O-])cc3)n3nc(-c4ccco4)nc23)n1` ?
## Result 1%

## Task Likewise for `COc1ccc(NC(=Nc2nc3nn(C)cc3c3nc(-c4ccco4)nn23)Nc2ccc(OC)cc2)cc1` ?
## Result 4%

## Task Likewise for `Cn1cc2c(nc(N=C(Nc3ccc(Cl)cc3)Nc3ccc(Cl)cc3)n3nc(-c4ccco4)nc23)n1` ?
## Result 2%

## Task Likewise for `CC(C)NC(=Nc1nc2nn(C)cc2c2nc(-c3ccco3)nn12)NC(C)C` ?
## Result 3%

## Task Likewise for `COc1cccc(NC(=Nc2nc3nn(C)cc3c3nc(-c4ccco4)nn23)Nc2cccc(OC)c2)c1` ?
## Result 1%

## Task Likewise for `Cn1cc2c(nc(N=C(Nc3ccc(C#N)cc3)Nc3ccc(C#N)cc3)n3nc(-c4ccco4)nc23)n1` ?
## Result 1%

## Task Likewise for `Cn1cc2c(nc(N=C(Nc3ccccc3)Nc3ccccc3)n3nc(-c4ccco4)nc23)n1` ?
## Result 1%

## Task Likewise for `Cn1cc2c(nc(N=C(Nc3cccc(C(F)(F)F)c3)Nc3cccc(C(F)(F)F)c3)n3nc(-c4ccco4)nc23)n1` ?
## Result 2%

## Task Likewise for `Cn1cc2c(nc(N=C(Nc3cccc(Cl)c3)Nc3cccc(Cl)c3)n3nc(-c4ccco4)nc23)n1` ?
## Result 1%

## Task Likewise for `Cc1ccc(NC(=Nc2nc3nn(C)cc3c3nc(-c4ccco4)nn23)Nc2ccc(C)cc2)cc1` ?
## Result 3%

## Task Likewise for `CCN/C(=N\c1nc2nn(C)cc2c2nc(-c3ccco3)nn12)NCCCN(C)C` ?
## Result 1%

## Task Likewise for `Cn1cc2c(nc(N=C(Nc3ccc(Br)cc3)Nc3ccc(Br)cc3)n3nc(-c4ccco4)nc23)n1` ?
## Result 1%

## Task Likewise for `Cn1cc2c(nc(N=C(NC3CCCCC3)NC3CCCCC3)n3nc(-c4ccco4)nc23)n1` ?
## Result 4%

Ref: ChEMBL document CHEMBL3580606
